All values here come from patent US10149839B2.

study_target: Estrogen Receptor (ERα) in MCF-7 cells (Homo sapiens (Human), UniProt P03372)
Sequence (P03372 whole entry): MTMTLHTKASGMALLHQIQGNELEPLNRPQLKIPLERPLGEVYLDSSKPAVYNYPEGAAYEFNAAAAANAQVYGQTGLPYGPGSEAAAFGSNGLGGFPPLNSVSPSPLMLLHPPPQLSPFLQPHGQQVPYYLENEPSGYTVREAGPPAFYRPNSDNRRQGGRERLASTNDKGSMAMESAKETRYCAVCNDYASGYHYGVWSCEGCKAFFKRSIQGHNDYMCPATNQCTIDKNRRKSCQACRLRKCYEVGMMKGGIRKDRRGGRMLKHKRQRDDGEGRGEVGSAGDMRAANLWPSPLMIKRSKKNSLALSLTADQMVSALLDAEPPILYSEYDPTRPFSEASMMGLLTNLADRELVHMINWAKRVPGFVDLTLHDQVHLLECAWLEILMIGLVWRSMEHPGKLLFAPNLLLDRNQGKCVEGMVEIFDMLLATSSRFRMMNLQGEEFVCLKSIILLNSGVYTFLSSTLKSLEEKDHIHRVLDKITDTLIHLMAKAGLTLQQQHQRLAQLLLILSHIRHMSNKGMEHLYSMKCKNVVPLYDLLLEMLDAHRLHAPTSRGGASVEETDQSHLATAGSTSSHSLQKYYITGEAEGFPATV
test_description: MCF-7 ER down-regulation assay (immuno-fluorescence)
run_conditions: 18-22 hours incubation
measured_quantity: IC50 (nM)

[[record]]
compound = "COc1cc(NCCNCCCF)ncc1[C@@H]1c2[nH]c3ccccc3c2C[C@@H](C)N1CC1(F)COC1 [Example 66]"
measured_quantity = "IC50"
result_value = 1

[[record]]
compound = "COc1cc(NCCNCCCF)ccc1[C@@H]1c2[nH]c3ccccc3c2C[C@@H](C)N1CC(F)F [Example 61]"
measured_quantity = "IC50"
result_value = 0.24

[[record]]
compound = "C[C@@H]1Cc2c([nH]c3ccccc23)[C@@H](c2cnc(OCCNCCCF)cn2)N1CC(F)(F)CO [Example 69]"
measured_quantity = "IC50"
result_value = 0.54


I: COc1cc(NCCNCCCF)ccc1[C@@H]1c2[nH]c3ccccc3c2C[C@@H](C)N1CC1(F)CC1 [Example 60]
II: C[C@@H]1Cc2c([nH]c3ccccc23)[C@@H](c2ccc(OCCNCCCF)cc2F)N1CC(C)(F)F [Example 55]
Which shows the larger IC50 value: I or II ? In your reply, give the label of the chosen option.
I

1: COc1cc(NCCNCCCF)ccc1[C@@H]1c2[nH]c3ccccc3c2C[C@@H](C)N1CC1(F)COC1 [Example 47]
2: COCC(F)(F)CN1[C@H](c2c(F)cc(OCCNCCCF)cc2F)c2[nH]c3ccccc3c2C[C@H]1C [Example 14]
Which shows the larger IC50 value: 1 or 2 ? In your reply, give the label of the chosen option.
2

* * *

test_description: physchem
run_conditions: 1-octanol/aqueous buffer, pH 7.4
measured_quantity: logD

Consider the reported logD for these compounds:
[[record]]
compound = "C[C@@H]1Cc2c([nH]c3ccccc23)[C@@H](c2cnc(NCCNCCCF)cn2)N1CC(F)F"
result_value = 2.3

[[record]]
compound = "C[C@@H]1Cc2c([nH]c3ccccc23)[C@@H](c2ccc(OCCNCCCF)cc2)N1CC(F)CF (single isomer, unassigned)"
result_value = 3

[[record]]
compound = "C[C@@H]1Cc2c([nH]c3ccccc23)[C@@H](c2c(F)cc(N(C)CCNCCCF)cc2F)N1CC1(F)CC1"
result_value = 3.5

[[record]]
compound = "C[C@@H]1Cc2c([nH]c3ccccc23)[C@@H](c2ccc(OCCNCCCF)cc2F)N1CC(F)F"
result_value = 3.4

[[record]]
compound = "C[C@@H]1Cc2c([nH]c3ccccc23)[C@@H](c2ccc(OCCNCCCF)cn2)N1CC1(F)CC1"
result_value = 2.7


1: C[C@@H]1Cc2c([nH]c3ccccc23)[C@@H](c2cnc(OCCNCCCF)cn2)N1CC(F)F
2: COc1cc(OCCNCCCF)ccc1[C@@H]1c2[nH]c3ccccc3c2C[C@@H](C)N1CC(C)(F)F
Returns: the label, 1 or 2 , whose recorded logD is the lower number. In your reply, give the label of the chosen option.
1
(1: 2.4, 2: 3.9)

* * *

study_target: estrogen receptor (ERα) in CAMA-1 cells (Homo sapiens (Human))
test_description: Western blotting assay, CAMA-1 cells
Format: cell-based
run_conditions: compound 100 nM, 48 h, normalised to 100 nM fulvestrant (100%)
measured_quantity: CAMA1 Western % ER deg vs Fv (%)

[[record]]
test_smiles = "COc1cc(OCCNCCCF)cnc1[C@@H]1c2[nH]c3ccccc3c2C[C@@H](C)N1CC(C)(C)F"
measured_quantity = "CAMA1 Western % ER deg vs Fv"
result_value = 82

[[record]]
test_smiles = "COc1nc(OCCNCCCF)ccc1[C@@H]1c2[nH]c3ccccc3c2C[C@@H](C)N1CC(F)F"
measured_quantity = "CAMA1 Western % ER deg vs Fv"
result_value = 60

[[record]]
test_smiles = "C[C@@H]1Cc2c([nH]c3ccccc23)[C@@H](c2c(F)cc(N(C)CCNCCCF)cc2F)N1CC(F)F"
measured_quantity = "CAMA1 Western % ER deg vs Fv"
result_value = 95

[[record]]
test_smiles = "COc1cc(NCCNCCCF)ccc1[C@@H]1c2[nH]c3ccccc3c2C[C@@H](C)N1CC1(F)COC1"
measured_quantity = "CAMA1 Western % ER deg vs Fv"
result_value = 81

